Target: T1, human PD-L1 on cells (human, UniProt Q9NZQ7 19-290)
T1 construct: whole, on cells; also called HEK-PD-L1 cells; PD-L1-expressing HEK 293 cells
T1 sequence (Q9NZQ7 19-290): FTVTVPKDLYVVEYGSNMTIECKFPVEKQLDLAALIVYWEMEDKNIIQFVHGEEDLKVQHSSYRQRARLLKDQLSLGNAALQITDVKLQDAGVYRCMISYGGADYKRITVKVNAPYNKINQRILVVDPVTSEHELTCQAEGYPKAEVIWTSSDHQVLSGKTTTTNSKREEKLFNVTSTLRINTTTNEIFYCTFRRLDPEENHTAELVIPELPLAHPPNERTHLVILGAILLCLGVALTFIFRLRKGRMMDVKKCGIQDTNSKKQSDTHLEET
Assay: flow cytometry on monocyte-derived dendritic cells; PE anti-human Fc, MFI
Procedure: The chimeric PD-L1 antibodies were further assessed for their ability to bind to human myeloid-derived dendritic cells. […] After washing, cells were analyzed using a MACS quant flow cytometer.
pEC50: −log10 of the molar value.
valueKind: pEC50

>>> number("chimeric anti-PD-L1 antibody 9A9 (antibody, human IgG1, V domains shown, also called c9A9; chimeric 9A9) VH: QSVEESGGRLVTPGTPLTLTCTVSGIDLSGYWMSWVRQAPGKGLEYIGIVDNDGSAYYASWVNGRFTISKTSTTVDLKITSPTTEDTATYFCARQSGDWTFDLWGPGTLVTVSS VL: DVVMTQTPASVSEPVGGTVTIKCQASQSIGRWLSWYQQKPGQPPKLLIYQASKLASGVPSRFSGSGSGTEFTLTISDLECADAATYYCQNNYDIIAYGNAFGGGTEVVVK")
9.40
